assay_protocol: STAT1 signaling activators, primary screen, cell-based, HTS, luciferase reporter (AID 932);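 note: raw ratio to IFN-gamma control signal so 100% means no change and 0% no light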
run_parameters: NIH 3T3 STAT1-luciferase reporter, IFN-gamma, luminescence; at 5.5 µM; stronger effect = higher value; 100% = IFN-gamma alone, no compound
Out of some 200,000 compounds screened, about 5,100 (2.5%) were called active. The sample as a whole holds a higher share of actives than the screen did.
attribute_measured: activation (% of control)

# compound, recorded_measurement
records = [
    ("O=C(CCCc1ccccc1)NCc1ccccc1", "108% (inactive)"),
]

*Q* Recorded activation (% of control) of Cc1ccc(S(=O)(=O)N(NC2=NS(=O)(=O)c3ccccc32)C(=O)c2ccccc2)cc1 , please.
*A* 106% (inactive)

*Q* Recorded activation (% of control) of COc1ccc2nc(Nc3nc4ccc(NC(C)=O)cc4s3)sc2c1 , please.
*A* 109% (inactive)

*Q* Recorded activation (% of control) of COc1ccc(-c2cn3cccnc3n2)cc1 , please.
*A* 118% (inactive)

*Q* Recorded activation (% of control) of CCCn1c(SCC(=O)Nc2ccc(C)c(S(=O)(=O)N3CCOCC3)c2)n[nH]c1=O , please.
*A* 90.6% (inactive)

*Q* Recorded activation (% of control) of Cc1ccc(C(=O)OCc2nc(N)nc(Nc3ccccc3C)n2)cc1 , please.
*A* 96.8% (inactive)

###

assay_protocol: STAT1 signaling activators, primary screen, cell-based, HTS, luciferase reporter (AID 932);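 note: raw ratio to IFN-gamma control signal so 100% means no change and 0% no light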
run_parameters: NIH 3T3 STAT1-luciferase reporter, IFN-gamma, luminescence; at 5.5 µM; 100% = IFN-gamma alone, no compound
About 5,100 (2.5%) of roughly 200,000 compounds were called active.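 Rule for the calls: active = activation above the screen-wide mean activation plus 3 SD (cut at about 130% in these data); inactive = the rest.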 The sample as a whole holds a higher share of actives than the screen did.
Write down one outcome, taken from yes (1) for active, no (0) for inactive

# molecule, class_label
rows = [
    ("CCOC(=O)c1oc2c(CN3CCN(CCO)CC3)c(O)c(CC)cc2c(=O)c1-c1nc2ccccc2s1", "no (0)"),
    ("CCCCCC(=O)Nc1ccc(S(=O)(=O)Nc2ccc(Cl)nn2)cc1", "no (0)"),
    ("O=C(Cc1c(F)cccc1Cl)Nc1ccc(-n2cnnn2)cc1", "no (0)"),
    ("COc1ccc(/C(N)=N/OC(=O)Oc2ccccc2)cc1", "no (0)"),
    ("CC(=O)NCC(=O)N(Cc1ccco1)C1(C(=O)NC2CCCC2)CCCCC1", "no (0)"),
    ("Cc1ccc(-n2[nH]c(C)c(/C=N/NC(=O)c3cccc([N+](=O)[O-])c3)c2=O)cc1C", "no (0)"),
    ("Oc1oc(-c2ccccc2Br)nc1/C=N/c1ccccn1", "yes (1)"),
    ("O=C(Nc1ccc2nc3n(c(=O)c2c1)CCCCC3)c1ccccc1Cl", "no (0)"),
    ("O=C(CN(CC1CCCO1)C(=O)CNS(=O)(=O)c1ccc(F)cc1)NCc1ccco1 (stereo not given)", "no (0)"),
    ("COc1ccc(-n2cc(CN(C)Cc3n[nH]c(=O)[nH]3)c(-c3cccc(F)c3)n2)cc1", "no (0)"),
]

*Q* Write down the call the test reported for this molecule. Item: CCn1ccnc1CN1CCCC(C(=O)c2ccc3c4c(cccc24)CC3)C1 (stereo not given)
*A* no (0)

*Q* Write down the call the test reported for this molecule. Item: O=C(C(=O)N1CCc2ccccc2C1)c1c[nH]c2ccccc12
*A* no (0)

*Q* Write down the call the test reported for this molecule. Item: COc1ccccc1-c1nc(SC)n[nH]1
*A* no (0)

*Q* Write down the call the test reported for this molecule. Item: CC(N=Cc1nc(-c2ccccc2)oc1O)c1ccccc1 (stereo not given)
*A* no (0)

*Q* Write down the call the test reported for this molecule. Item: N#C/C(=C/c1cccc([N+](=O)[O-])c1)c1nnc2n1CCCCC2
*A* no (0)

###

assay_protocol: STAT1 signaling activators, primary screen, cell-based, HTS, luciferase reporter (AID 932);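 note: raw ratio to IFN-gamma control signal so 100% means no change and 0% no light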
run_parameters: NIH 3T3 STAT1-luciferase reporter, IFN-gamma, luminescence; at 5.5 µM; 100% = IFN-gamma alone, no compound
In all, about 200,000 compounds went through this assay and about 5,100 (2.5%) were called active.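 Rule for the calls: active = activation above the screen-wide mean activation plus 3 SD (cut at about 130% in these data); inactive = the rest.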 The list comes from a sample in which actives are over-represented; it also holds close analogues and randomly drawn compounds.
Write down one outcome, taken from T = active, F = inactive

Recorded results for 5 molecules are shown here.
# molecule, class_label
measured = [
    ("COc1ccc(-c2nnc3ccc(SCc4ccccc4)nn23)cc1", "F"),
    ("Cn1c(=O)n(Cc2ccco2)c(=N)c2c3c(sc21)CCCC3", "F"),
    ("CSCCC(=O)N1CCCC(CNC(=O)c2ccccc2Cl)C1 (configuration not stated)", "F"),
    ("CC(=O)Nc1ccc(S(=O)(=O)Oc2ccc(/C=N/N=C3/NC(=O)C(CC(=O)O)S3)cc2)cc1 (configuration not stated)", "F"),
    ("CCOc1cc(/C=N/O)ccc1OCc1ccccc1F", "F"),
]

*Q* Write down the call the test reported for this molecule. Item: Cn1c(CNC(=O)c2ccccc2F)nnc1SCc1ccc(F)cc1
*A* F

*Q* Write down the call the test reported for this molecule. Item: CC(C)Oc1ccc(Cc2n[nH]c(=S)n2Cc2ccccc2)cc1Cl
*A* F

*Q* Write down the call the test reported for this molecule. Item: CS(=O)(=O)c1sc2nc(-c3ccccc3)cc(-c3ccccc3)c2c1N
*A* F

*Q* Write down the call the test reported for this molecule. Item: C#CCOCCOCCOCCNc1nc(N2CCN(C(=O)[C@H](Cc3ccc(O)cc3)n3cc(C(N)CC(C)C)nn3)CC2)nc(N2CCN(C(=O)[C@H](CCC(=O)O)n3cc(C(N)[C@H](C)CC)nn3)CC2)n1 (some centres not stated)
*A* F

*Q* Write down the call the test reported for this molecule. Item: CC(C)c1ccc(C(=O)NCCCc2ccccc2)cc1
*A* T

*Q* Write down the call the test reported for this molecule. Item: O=C(OCc1ccc([N+](=O)[O-])cc1)c1ccccn1
*A* F

*Q* Write down the call the test reported for this molecule. Item: Cc1nn(-c2ccc([N+](=O)[O-])cc2)c(N)c1-c1ccccc1
*A* T

*Q* Write down the call the test reported for this molecule. Item: Cc1cc(/C=C2/C(=N)N3C(=NC2=O)SN=C3S(C)(=O)=O)c(C)n1-c1ccccc1
*A* F

*Q* Write down the call the test reported for this molecule. Item: COc1ccc2nc(SCc3ccccc3)nc(C)c2c1
*A* T

*Q* Write down the call the test reported for this molecule. Item: COC(=O)CSc1nc(C)c2ccc(OC)cc2n1
*A* F

*Q* Write down the call the test reported for this molecule. Item: O=C(NCCc1ccccc1)c1ccc(OCCOc2ccccc2)cc1
*A* F

*Q* Write down the call the test reported for this molecule. Item: N/C(=N\OC(=O)CC1CCCCC1)c1ccccc1
*A* F

*Q* Write down the call the test reported for this molecule. Item: COc1cc(/C=C2/C(=O)ON=C2C)ccc1OCc1cccc(F)c1
*A* F

*Q* Write down the call the test reported for this molecule. Item: CS(=O)(=O)n1nc(-c2ccccc2)nc1NCc1ccco1
*A* F

*Q* Write down the call the test reported for this molecule. Item: CCCOc1ccc(C(=O)NCCc2ccccc2)cc1
*A* F

*Q* Write down the call the test reported for this molecule. Item: CCOC(=O)c1sc2nc(SC)nc(-c3ccccc3)c2c1N
*A* F

*Q* Write down the call the test reported for this molecule. Item: CCC(C)(NC(=O)c1ccccn1)C(=O)NC1CCCCC1 (configuration not stated)
*A* F

###

assay_protocol: STAT1 signaling activators, primary screen, cell-based, HTS, luciferase reporter (AID 932);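 note: raw ratio to IFN-gamma control signal so 100% means no change and 0% no light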
run_parameters: NIH 3T3 STAT1-luciferase reporter, IFN-gamma, luminescence; at 5.5 µM; stronger effect = higher value; 100% = IFN-gamma alone, no compound
Hit rate of the full screen: of about 200,000 compounds, about 5,100 (2.5%) were called active. Only a selection was taken, and actives are over-represented in it overall.
Quick reference for activation (% of control) among some molecules
Respond numerically; units are % and should not be typed.

Solved cases below.
# smiles, unit_name, activation (% of control)
measured = [
    ("CC(=C/c1ccccc1)/C=N/NC(=O)c1cc(C)oc1C", "%", 117),
    ("CN(C)S(=O)(=O)Oc1ccccc1C(=O)Nc1ccccc1Cl", "%", 91.9),
    ("CC(C)Cc1cc(C(=O)Nc2cc(Br)ccc2O)no1", "%", 101),
    ("Cc1cccc(NC(=S)NC(=O)c2ccc(Br)o2)c1", "%", 125),
    ("Cc1cc(C(=O)NCCCc2ccccc2)no1", "%", 110),
]

In the following, a different molecule is considered.
*Q* Recorded activation (% of control) of N/C(=N\OC(=O)CCC1CCCCC1)c1ccccn1 , please.
*A* 130

###

Quick reference for activation (% of control) among some compounds
assay_protocol: STAT1 signaling activators, primary screen, cell-based, HTS, luciferase reporter (AID 932);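 note: raw ratio to IFN-gamma control signal so 100% means no change and 0% no light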
run_parameters: NIH 3T3 STAT1-luciferase reporter, IFN-gamma, luminescence; at 5.5 µM; stronger effect = higher value; 100% = IFN-gamma alone, no compound
Screen size: about 200,000 compounds; about 5,100 (2.5%) were called active. Many of the other results were omitted from the sample, so actives are more common in it than they were.
Respond numerically; units are % and should not be typed.

Solved cases below.
# compound, recorded_measurement
data = [
    ("CCOC(=O)c1ccccc1N1C(=O)C2Sc3[nH]c(=O)sc3C(/C=C/c3ccccc3)C2C1=O (stereo not given)", 114),
    ("C/C(=N\\OC(=O)c1ccccc1)c1c(C)nc2cc(C)ccn12", 99.5),
]

*Q* Recorded activation (% of control) of Cc1cccc(CSc2nnc(NC(=O)CSc3nnc(C)s3)s2)c1 , please.
*A* 107

*Q* Recorded activation (% of control) of CN=c1scc(-c2cc(OC)ccc2OC)n1/N=C/c1c(C)[nH]c2ccccc12 , please.
*A* 112

*Q* Recorded activation (% of control) of COc1ccc(C)cc1NC(=O)CSc1nnc(CC(=O)Nc2ccccc2F)n1C , please.
*A* 92.1
